- assay.target: G-protein coupled receptor 183 (Homo sapiens)
- assay.remarks: EBI2 receptor antagonists, beta-arrestin recruitment, primary screen, cell-based, luminescence, 7a,25-OHC stimulation, uHTS (AID 651636);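 note: enzyme fragment complementation signal reports receptor beta-arrestin coupling in cells; 0% = agonist plus DMSO wells and 100% = wells without agonist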
- assay.setup: 7a,25-OHC stimulated, at 5 µM
Out of some 360,000 compounds screened, about 3,000 (0.83%) were called active. Cut-off read from the data, not from the text of the source: active = inhibition above about 38%; inactive = the rest. The sample holds actives, similar compounds and a random draw of the others, so the mix is not that of the screen.
Hi! Could you answer with just one of these? 1.0 for active, 0.0 for inactive

>  <compound>
FC(F)(F)Oc1ccccc1C(c1nnnn1C1CCCCC1)N1CCN(C/C=C/c2ccccc2)CC1 (stereo not given)

>  <class.name>
1.0

$$$$
>  <compound>
CC(C)C(c1nnnn1C1CCCC1)N1CCN(c2ccccc2F)CC1 (stereo not given)

>  <class.name>
0.0

$$$$
>  <compound>
Cc1cccc(N=C2NC(=O)/C(=C/c3cn(C)c4ccccc34)S2)c1

>  <class.name>
1.0

$$$$
>  <compound>
COc1ccc(N2CCN(C(c3cc4ccc(C)cc4[nH]c3=O)c3nnnn3C3CCCC3)CC2)cc1 (stereo not given)

>  <class.name>
0.0

$$$$
>  <compound>
N#Cc1ccc(C(c2nnnn2CCc2ccccc2)N2CCCCCC2)cc1 (stereo not given)

>  <class.name>
1.0

$$$$
>  <compound>
Cc1cccc(N=C2SC(C)CN2C(=O)CN2C(=O)NC3(CCCC3)C2=O)c1 (stereo not given)

>  <class.name>
0.0

$$$$
>  <compound>
CCCCNC(=S)N/N=C1\CCCCc2ccccc21

>  <class.name>
0.0

$$$$
>  <compound>
CCN1CCN(C(=O)N(Cc2ccc(Cl)cc2)S(=O)(=O)c2ccc(C)cc2)CC1

>  <class.name>
0.0

$$$$

input: # fetch the recorded call for `Cc1cccc(Oc2c([N+](=O)[O-])c(=O)n(C)c3ccccc23)c1` here
output: 0.0

input: Record request — test call for CCCC1CCC(=NNC(=S)NCCc2ccccc2)CC1 (stereo not given)
output: 1.0

---

- assay.target: G-protein coupled receptor 183 (Homo sapiens) (UniProt P32249)
- Sequence (P32249 whole entry, looked up, the tested form may be a part): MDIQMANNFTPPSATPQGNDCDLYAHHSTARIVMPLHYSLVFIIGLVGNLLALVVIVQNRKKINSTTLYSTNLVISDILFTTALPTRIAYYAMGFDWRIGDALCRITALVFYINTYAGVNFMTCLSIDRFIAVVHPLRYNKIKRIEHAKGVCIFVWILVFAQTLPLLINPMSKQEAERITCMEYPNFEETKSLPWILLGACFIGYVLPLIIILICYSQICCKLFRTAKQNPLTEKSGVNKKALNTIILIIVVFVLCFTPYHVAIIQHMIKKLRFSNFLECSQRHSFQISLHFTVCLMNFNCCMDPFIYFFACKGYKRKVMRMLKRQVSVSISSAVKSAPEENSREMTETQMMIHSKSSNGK
- assay.remarks: EBI2 receptor antagonists, beta-arrestin recruitment, primary screen, cell-based, luminescence, 7a,25-OHC stimulation, uHTS (AID 651636)
- assay.setup: 7a,25-OHC stimulated, at 5 µM, hits give high values
The whole screen tested about 360,000 compounds, of which about 3,000 (0.83%) were called active. The entries come from a sample that favours actives as a whole.
outcome.measure: inhibition (%)
Kindly answer with a numeric value in %, unit omitted.

>  <compound>
C=CC[C@H](CC(=O)N(CCO)Cc1ccccc1)C(=O)N[C@@H](COC(=O)[C@@H](CC=C)Cc1ccc(F)cc1)Cc1ccccc1

>  <assay.target>
G-protein coupled receptor 183 (Homo sapiens) (UniProt P32249)

>  <inhibition (%)>
27

$$$$
>  <compound>
Clc1cccc(N=C2NN=C(c3ccc4c(c3)OCCO4)CS2)c1

>  <assay.target>
G-protein coupled receptor 183 (Homo sapiens) (UniProt P32249)

>  <inhibition (%)>
49.5

$$$$

Kindly note the recorded inhibition for `c1ccc(CN2CCC(N=C3NN=C(c4ccc5c(c4)OCCO5)CS3)CC2)cc1` , which is 6.66

// inhibition lookup, compound = Cc1cnc(CN(C)C(=O)CC2C(=O)NCCN2Cc2cccc(F)c2F)[nH]1 (stereo not given) , result: -7.04

inhibition recorded for this compound, `CC(C)NC(=O)NNc1c(Cl)cncc1Cl` , is 1.07

Sure, the documented inhibition for `Cc1cccc(N2CCN(C(=O)c3cc4c(=O)[nH]c5ccccc5c4n3C)CC2)c1C` is 88.2

inhibition for `COc1ccc(OC)c(C(=O)c2coc3ccc(OC)cc23)c1` is 5.5

---

- assay.target: G-protein coupled receptor 183 (Homo sapiens)
- assay.remarks: EBI2 receptor antagonists, beta-arrestin recruitment, primary screen, cell-based, luminescence, 7a,25-OHC stimulation, uHTS (AID 651636)
- assay.setup: 7a,25-OHC stimulated, at 5 µM
About 3,000 (0.83%) of roughly 360,000 compounds were called active. Rule as the data show it: active = inhibition above about 38%; inactive = the rest. The sample as a whole holds a higher share of actives than the screen did.
Outcome field: choose from active, inactive

>  <molecule>
COCCNC(=S)c1ccc(OC)cc1

>  <class.name>
inactive

$$$$
>  <molecule>
CC(=O)N1c2ccc(S(=O)(=O)NCCC(=O)N(C)C3CCCCC3)cc2CC1C (stereo unspecified)

>  <class.name>
inactive

$$$$
>  <molecule>
Cc1cc(C)c2c(=O)n3c(nc2c1)C(CC(C)C)NC(=O)c1cc2ccccc2cc1-3 (stereo unspecified)

>  <class.name>
active

$$$$
>  <molecule>
Cc1ccc(S(=O)(=O)N2CCN(C(=O)CSc3cc(C)ccc3C)CC2)c(C)c1

>  <class.name>
active

$$$$
>  <molecule>
CCCC(C(=O)N1CCOCC1)N1C(=O)C2C3C=CC(C3)C2C1=O (stereo unspecified)

>  <class.name>
inactive

$$$$
>  <molecule>
COc1ccc(-n2cc(-c3ccccc3)c3c(=S)nc[nH]c32)cc1

>  <class.name>
inactive

$$$$
>  <molecule>
Cc1c(NC(=O)CN2C(=O)C(=O)N(Cc3ccccc3)C2=O)c(=O)n(-c2ccccc2)n1C

>  <class.name>
inactive

$$$$
>  <molecule>
CC(=O)c1nn(-c2cccc(Br)c2)cc1C(=O)c1cccc2ccccc12

>  <class.name>
inactive

$$$$

input: Hi, sorry to bother you, what did the test record for `O=C(O/N=C(/c1ccccc1)c1ccncc1)c1ccccc1[N+](=O)[O-]` ?
output: inactive

input: Call for entry CCC1NC(=O)c2cccnc2-n2c1nc1ccc(C)cc1c2=O (stereo unspecified) :
output: inactive

input: Could you kindly confirm the outcome this assay logged for `COc1ccc(-c2cn(-c3ccc(OC)cc3)c(=S)[nH]2)cc1` ?
output: active

---

In this section we review reported inhibition values for a set of compounds.
- assay.target: G-protein coupled receptor 183 (Homo sapiens) (UniProt P32249)
- assay.remarks: EBI2 receptor antagonists, beta-arrestin recruitment, primary screen, cell-based, luminescence, 7a,25-OHC stimulation, uHTS (AID 651636);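 note: enzyme fragment complementation signal reports receptor beta-arrestin coupling in cells; 0% = agonist plus DMSO wells and 100% = wells without agonist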
- assay.setup: 7a,25-OHC stimulated, at 5 µM, hits give high values
The campaign covered roughly 360,000 compounds. About 3,000 (0.83%) were called active. Many of the other results were omitted from the sample, so actives are more common in it than they were.
Supply the numeric figure in %, leaving out any unit text.

Example cases with answers are listed next.
>  <compound>
N#Cc1ncc(C(F)(F)F)cc1Oc1cccnc1

>  <inhibition (%)>
-11

$$$$
>  <compound>
Cc1cc(C(=O)N2CCN(c3ccccn3)CC2)c(C)o1

>  <inhibition (%)>
-3.6

$$$$
>  <compound>
O=C(NCCN1CCCC(O)C1)c1cc(COc2c(F)cccc2F)on1 (stereo unspecified)

>  <inhibition (%)>
-9.61

$$$$
>  <compound>
O=C(c1cc2ccccc2s1)N1CCN(c2ccccn2)CC1

>  <inhibition (%)>
60.8

$$$$
>  <compound>
COc1ccc(C(C(=O)NC2CCCCC2)N(C(=O)c2snc(C(N)=O)c2N)c2ccccc2OC)cc1 (stereo unspecified)

>  <inhibition (%)>
48.7

$$$$

# ---- query compound ----
Result for `COCCNc1nc2nonc2nc1N(C)Cc1ccc(C)cc1` , tested on G-protein coupled receptor 183 (Homo sapiens) (UniProt P32249), inhibition: -3.45

---

- assay.target: G-protein coupled receptor 183 (Homo sapiens) (UniProt P32249)
- assay.remarks: EBI2 receptor antagonists, beta-arrestin recruitment, primary screen, cell-based, luminescence, 7a,25-OHC stimulation, uHTS (AID 651636);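 note: enzyme fragment complementation signal reports receptor beta-arrestin coupling in cells; 0% = agonist plus DMSO wells and 100% = wells without agonist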
- assay.setup: 7a,25-OHC stimulated, at 5 µM, hits give high values
The campaign covered roughly 360,000 compounds. About 3,000 (0.83%) were called active. Only a selection was taken, and actives are over-represented in it overall.
Please note: 1 applies when inhibition is 10% or greater, and 0 applies otherwise.

input: Tell me whether inhibition is at least 10% here: `O=C(Nc1ncc2c(n1)-c1ccccc1OC2)c1ccc(Cl)cc1`
output: 0

input: Would you say `CC(C)(C)OC(=O)C[C@@H]1C/C=C\C[C@@H](CC(=O)N[C@@H](CO)Cc2ccccc2)C(=O)N2CCC[C@H]2COC1=O` shows inhibition at minimum 10%?
output: 0

input: Confirm if inhibition reported for the compound Cc1nnnn1/C(=C\c1ccccc1)C(=O)OCC(=O)N1CC2(C)CC1CC(C)(C)C2 (stereo not given) is 10% or above.
output: 1

input: Is it the case that CCCCn1nnnc1C(c1cc2ccccc2o1)N(C)Cc1ccc(Cl)c(Cl)c1 (stereo not given) has inhibition reaching or exceeding 10%?
output: 1

input: For this compound, is measured inhibition 10% or higher? CC1CCCCC1NC(=O)/C(C#N)=C/C=C/c1ccccc1[N+](=O)[O-] (stereo not given)
output: 0

---

- assay.target: G-protein coupled receptor 183 (Homo sapiens) (UniProt P32249)
- assay.remarks: EBI2 receptor antagonists, beta-arrestin recruitment, primary screen, cell-based, luminescence, 7a,25-OHC stimulation, uHTS (AID 651636);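 note: enzyme fragment complementation signal reports receptor beta-arrestin coupling in cells; 0% = agonist plus DMSO wells and 100% = wells without agonist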
- assay.setup: 7a,25-OHC stimulated, at 5 µM, hits give high values
Among all 360,000 compounds or so, about 3,000 (0.83%) were called active. This is one part of a sample in which actives are shown more often than they occur.
outcome.measure: inhibition (%)
Give your result in % as a bare value.

>  <compound>
O=C(O)C1CC=CCC1C(=O)NCCc1ccccc1 (configuration not stated)

>  <output.unit>
%

>  <inhibition>
-5.64

$$$$

Now consider the entry below.
inhibition recorded for this compound, CC(C)c1ccc(N2CC(C(=O)Nc3nccs3)CC2=O)cc1 (configuration not stated) , is 5.79
